Item-by-item account of relative viability
tested on: A-427; assay: relative viability (nuclei count vs DMSO), 5 days (fraction); higher = more cells survive; settings: first compound 0.8 µM

[
  {
    "compound": "Nc1cccc2c1CN(C1CCC(=O)NC1=O)C2=O (stereo not drawn) [Lenalidomide] + N=C(N)NC(=N)NCCc1ccccc1 [Phenformin] (partner 250 µM)",
    "relative viability": 0.324
  },
  {
    "compound": "Nc1cccc2c1CN(C1CCC(=O)NC1=O)C2=O (stereo not drawn) [Lenalidomide] + Nc1nc2[nH]cc(CCc3ccc(C(=O)N[C@@H](CCC(=O)O)C(=O)O)cc3)c2c(=O)[nH]1 [Pemetrexed] (partner 0.2 µM)",
    "relative viability": 0.931
  },
  {
    "compound": "Nc1cccc2c1CN(C1CCC(=O)NC1=O)C2=O (stereo not drawn) [Lenalidomide] + Nc1ncn([C@H]2C[C@H](O)[C@@H](CO)O2)c(=O)n1 [Decitabine] (partner 2 µM)",
    "relative viability": 0.573
  }
]

---

tested on: NCI-H1437; test: relative viability (nuclei count vs DMSO), 5 days (fraction); higher = more cells survive; conditions: first compound 0.001 µM
Threshold-based label: relative viability under 0.5 gives YES, relative viability not under 0.5 gives NO.

[
  {
    "compound": "Cc1cn(-c2cc(NC(=O)c3ccc(C)c(Nc4nccc(-c5cccnc5)n4)c3)cc(C(F)(F)F)c2)cn1 [Nilotinib] + Cc1cc(Nc2cc(N3CCN(C)CC3)nc(Sc3ccc(NC(=O)C4CC4)cc3)n2)n[nH]1 [Tozasertib] (partner 0.1 µM)",
    "groupLabel": "YES"
  },
  {
    "compound": "Cc1cn(-c2cc(NC(=O)c3ccc(C)c(Nc4nccc(-c5cccnc5)n4)c3)cc(C(F)(F)F)c2)cn1 [Nilotinib] + CC(C)C[C@H](NC(=O)[C@H](Cc1ccccc1)NC(=O)c1cnccn1)B(O)O [Bortezomib] (partner 0.002 µM)",
    "groupLabel": "YES"
  },
  {
    "compound": "Cc1cn(-c2cc(NC(=O)c3ccc(C)c(Nc4nccc(-c5cccnc5)n4)c3)cc(C(F)(F)F)c2)cn1 [Nilotinib] + Nc1ncn([C@H]2C[C@H](O)[C@@H](CO)O2)c(=O)n1 [Decitabine] (partner 2 µM)",
    "groupLabel": "NO"
  },
  {
    "compound": "Cc1cn(-c2cc(NC(=O)c3ccc(C)c(Nc4nccc(-c5cccnc5)n4)c3)cc(C(F)(F)F)c2)cn1 [Nilotinib] + Nc1nc2[nH]cc(CCc3ccc(C(=O)N[C@@H](CCC(=O)O)C(=O)O)cc3)c2c(=O)[nH]1 [Pemetrexed] (partner 0.2 µM)",
    "groupLabel": "YES"
  },
  {
    "compound": "Cc1cn(-c2cc(NC(=O)c3ccc(C)c(Nc4nccc(-c5cccnc5)n4)c3)cc(C(F)(F)F)c2)cn1 [Nilotinib] + CC(=O)Nc1cccc(-n2c(=O)n(C3CC3)c(=O)c3c(Nc4ccc(I)cc4F)n(C)c(=O)c(C)c32)c1 [Trametinib] (partner 0.02 µM)",
    "groupLabel": "YES"
  }
]

---

system: HOP-62; assay: relative viability (nuclei count vs DMSO), 5 days (fraction); higher = more cells survive; conditions: first compound 0.02 µM
Reported relative viability values for the following compounds.
assayMetric: relative viability

[
  {
    "compound": "CN1CCN(CCOc2cc(OC3CCOCC3)c3c(Nc4c(Cl)ccc5c4OCO5)ncnc3c2)CC1 [Saracatinib] + COc1cc2c(Oc3ccc(NC(=O)C4(C(=O)Nc5ccc(F)cc5)CC4)cc3F)ccnc2cc1OCCCN1CCOCC1 [Foretinib] (partner 0.25 µM)",
    "assayMetric": "relative viability",
    "recordedValue": 1.17
  },
  {
    "compound": "CCNC(=O)c1noc(-c2cc(C(C)C)c(O)cc2O)c1-c1ccc(CN2CCOCC2)cc1 [Luminespib] + O=C(CCCCCCC(=O)Nc1ccccc1)NO [Vorinostat] (partner 1 µM)",
    "assayMetric": "relative viability",
    "recordedValue": 0.454
  },
  {
    "compound": "CN1CCN(CCOc2cc(OC3CCOCC3)c3c(Nc4c(Cl)ccc5c4OCO5)ncnc3c2)CC1 [Saracatinib] + O=C(CCCCCCC(=O)Nc1ccccc1)NO [Vorinostat] (partner 1 µM)",
    "assayMetric": "relative viability",
    "recordedValue": 0.624
  },
  {
    "compound": "CN1CCN(CCOc2cc(OC3CCOCC3)c3c(Nc4c(Cl)ccc5c4OCO5)ncnc3c2)CC1 [Saracatinib] + CC1(C)CCC(c2ccc(Cl)cc2)=C(CN2CCN(c3ccc(C(=O)NS(=O)(=O)c4ccc(N[C@H](CCN5CCOCC5)CSc5ccccc5)c(S(=O)(=O)C(F)(F)F)c4)cc3)CC2)C1 [Navitoclax] (partner 0.5 µM)",
    "assayMetric": "relative viability",
    "recordedValue": 1.01
  },
  {
    "compound": "CCNC(=O)c1noc(-c2cc(C(C)C)c(O)cc2O)c1-c1ccc(CN2CCOCC2)cc1 [Luminespib] + Cc1nc(Nc2ncc(C(=O)Nc3c(C)cccc3Cl)s2)cc(N2CCN(CCO)CC2)n1 [Dasatinib] (partner 0.075 µM)",
    "assayMetric": "relative viability",
    "recordedValue": 0.603
  },
  {
    "compound": "CN1CCN(CCOc2cc(OC3CCOCC3)c3c(Nc4c(Cl)ccc5c4OCO5)ncnc3c2)CC1 [Saracatinib] + CCNC(=O)c1noc(-c2cc(C(C)C)c(O)cc2O)c1-c1ccc(CN2CCOCC2)cc1 [Luminespib] (partner 0.01 µM)",
    "assayMetric": "relative viability",
    "recordedValue": 0.864
  }
]
